assay: Pharmacokinetics of released PEGylated protease inhibitor following P.O. administration of prodrugs in rats; type: in vivo, male Sprague-Dawley rats; conditions: mPEG6-atazanavir in plasma after PO administration of mPEG6-ATV or of the listed prodrug, rats (n = 4-5)
Field: Tmax Median. Provide a value for each of the compounds that follow.

Lookup: Report Tmax Median for CCOC(CC)OC(CN(Cc1ccc(-c2ccccn2)cc1)NC(=O)C(NC(=O)OC)C(C)(C)C)C(Cc1ccccc1)NC(=O)C(NC(=O)OCCOCCOCCOCCOCCOCCOC)C(C)(C)C (mixture of isomers)
Found: 0.750 h

Lookup: Report Tmax Median for COCCOCCOCCOCCOCCOCCOC(=O)N[C@H](C(=O)N[C@@H](Cc1ccccc1)[C@H](CN(Cc1ccc(-c2ccccn2)cc1)NC(=O)[C@@H](NC(=O)OC)C(C)(C)C)OC(=O)CNC(=O)[C@@H](N)Cc1ccccc1)C(C)(C)C.Cl [Phe-Gly-mPEG6-ATV, Phe-Gly-mPEG6-Atazanavir Hydrochloride]
Found: 24.0 h

Lookup: Report Tmax Median for COCCOCCOCCOCCOCCOCCOC(=O)NC(C(=O)NC(Cc1ccccc1)C(CN(Cc1ccc(-c2ccccn2)cc1)NC(=O)C(NC(=O)OC)C(C)(C)C)OC(=O)C(CC(C)C)NC(=O)C(N)Cc1ccccc1)C(C)(C)C.Cl (stereo not drawn) [Phe-Leu-mPEG6-ATV, Phe-Leu-mPEG6-Atazanavir Hydrochloride]
Found: 1.50 h

Lookup: Report Tmax Median for COCCOCCOCCOCCOCCOCCOC(=O)N[C@H](C(=O)N[C@@H](Cc1ccccc1)[C@H](CN(Cc1ccc(-c2ccccn2)cc1)NC(=O)[C@@H](NC(=O)OC)C(C)(C)C)OC(=O)CNC(=O)[C@@H](N)CC(C)C)C(C)(C)C.Cl [Leu-Gly-mPEG6-ATV, Leu-Gly-mPEG6-Atazanavir Hydrochloride]
Found: 30.0 h

Lookup: Report Tmax Median for COCCOCCOCCOCCOCCOCCOC(=O)N[C@H](C(=O)N[C@@H](Cc1ccccc1)[C@@H](O)CN(Cc1ccc(-c2ccccn2)cc1)NC(=O)[C@@H](NC(=O)OC)C(C)(C)C)C(C)(C)C
Found: 0.250 h

Lookup: Report Tmax Median for CCNC(=O)OC(CN(Cc1ccc(-c2ccccn2)cc1)NC(=O)C(NC(=O)OC)C(C)(C)C)C(Cc1ccccc1)NC(=O)C(NC(=O)OCCOCCOCCOCCOCCOCCOC)C(C)(C)C (stereo not shown) [mPEG6-ATV-ethylcarbamate, mPEG6-Atazanavir-NH-ethyl carbamate]
Found: 1.00 h

Lookup: Report Tmax Median for CCCCCCCC(=O)OC(CN(Cc1ccc(-c2ccccn2)cc1)NC(=O)C(NC(=O)OC)C(C)(C)C)C(Cc1ccccc1)NC(=O)C(NC(=O)OCCOCCOCCOCCOCCOCCOC)C(C)(C)C (stereo not shown) [C7H15CO-mPEG6-ATV, O-Octanoyl-mPEG6-Atazanavir]
Found: 2.00 h

* * *

assay: Pharmacokinetics of released PEGylated protease inhibitor following P.O. administration of prodrugs in rats; type: in vivo, male Sprague-Dawley rats; conditions: mPEG3-atazanavir in plasma after PO administration of mPEG3-ATV or of the listed prodrug, rats (n = 4-5)
REPORTED_ENDPOINT: Tmax* Median

Lookup: Report Tmax* Median for COCCOCCOCCOC(=O)N[C@H](C(=O)N[C@@H](Cc1ccccc1)[C@H](CN(Cc1ccc(-c2ccccn2)cc1)NC(=O)[C@@H](NC(=O)OC)C(C)(C)C)OP(=O)(O)O)C(C)(C)C [mPEG3-ATV-phosphate, mPEG3-atazanavir phosphate]
Found: 1.25 h

Lookup: Report Tmax* Median for COCCOCCOCCOC(=O)N[C@H](C(=O)N[C@@H](Cc1ccccc1)[C@H](CN(Cc1ccc(-c2ccccn2)cc1)NC(=O)[C@@H](NC(=O)OC)C(C)(C)C)OCOCCOC)C(C)(C)C [mPEG3 ATV-Methyl ethyl methyl ether]
Found: 2.00 h

Lookup: Report Tmax* Median for COCCOCCOCCOC(=O)NC(C(=O)NC(Cc1ccccc1)C(CN(Cc1ccc(-c2ccccn2)cc1)NC(=O)C(NC(=O)OC)C(C)(C)C)OC(=O)COCCOC(=O)C(N)Cc1ccccc1)C(C)(C)C.Cl (stereo not shown) [mPEG3-Atazanavir-CME-phenylalanine HCl, mPEG3-atazanavir-CME-phenylalanine]
Found: 6.00 h

Lookup: Report Tmax* Median for COCCOCCOCCOC(=O)NC(C(=O)NC(Cc1ccccc1)C(CN(Cc1ccc(-c2ccccn2)cc1)NC(=O)C(NC(=O)OC)C(C)(C)C)OC(=O)COCCOC(=O)C(N)CC(C)C)C(C)(C)C.Cl (stereo not shown) [mPEG3-Atazanavir-CME-Leucine HCl, mPEG3-Atazanavir-CME-Leucine]
Found: 9.00 h

* * *

Field: AUCall Mean. Provide a value for each of the compounds that follow.
assay: Pharmacokinetics of released PEGylated protease inhibitor following P.O. administration of prodrugs in rats; format: in vivo, male Sprague-Dawley rats; parameters: concentration or dose not given beside the values; conditions: mPEG3-atazanavir in plasma after PO administration of mPEG3-ATV or of the listed prodrug, rats (n = 4-5)
Respond numerically; units are µg·h/mL and should not be typed.

Lookup: Report AUCall Mean for CCC(=O)OC(CN(Cc1ccc(-c2ccccn2)cc1)NC(=O)C(NC(=O)OC)C(C)(C)C)C(Cc1ccccc1)NC(=O)C(NC(=O)OCCOCCOCCOC)C(C)(C)C (centres unmarked) [C2H5CO-mPEG3-ATV, mPEG3-Atazanavir Propionate]
Found: 0.0596

Lookup: Report AUCall Mean for COCCOCCOCCOC(=O)NC(C(=O)NC(Cc1ccccc1)C(CN(Cc1ccc(-c2ccccn2)cc1)NC(=O)C(NC(=O)OC)C(C)(C)C)OC(=O)C(N)CC(C)C)C(C)(C)C.Cl (centres unmarked)
Found: 0.347

* * *

experiment: Pharmacokinetics of PEGylated protease inhibitor prodrugs in rats; assay type: in vivo, male Sprague-Dawley rats; conditions: prodrug in plasma, mean ± SD
Hi, to clarify the labels: YES covers Cmax from 500 ng/mL upward, NO covers anything below 500 ng/mL.

Lookup: # bool: Cmax of COCCOCCOCCOC(=O)NC(C(=O)NC(Cc1ccccc1)C(CN(Cc1ccc(-c2ccccn2)cc1)NC(=O)C(NC(=O)OC)C(C)(C)C)OC(=O)C(N)CC(C)C)C(C)(C)C.Cl (stereo not drawn) >= 500 ng/mL
Found: NO

Lookup: # bool: Cmax of COCCOCCOCCOC(=O)NC(C(=O)NC(Cc1ccccc1)C(CN(Cc1ccc(-c2ccccn2)cc1)NC(=O)C(NC(=O)OC)C(C)(C)C)OC(=O)COCCOC(=O)C(Cc1ccccc1)NC(=O)C(N)Cc1ccccc1)C(C)(C)C.Cl (stereo not drawn) >= 500 ng/mL
Found: NO

Lookup: # bool: Cmax of CCOC(C)OC(CN(Cc1ccc(-c2ccccn2)cc1)NC(=O)C(NC(=O)OC)C(C)(C)C)C(Cc1ccccc1)NC(=O)C(NC(=O)OCCOCCOCCOC)C(C)(C)C (mixture of isomers) >= 500 ng/mL
Found: YES

Lookup: # bool: Cmax of COCCOCCOCCOC(=O)NC(C(=O)NC(Cc1ccccc1)C(CN(Cc1ccc(-c2ccccn2)cc1)NC(=O)C(NC(=O)OC)C(C)(C)C)OC(=O)CNC(=O)C(N)CC(C)C)C(C)(C)C.Cl (stereo not drawn) [Leu-Gly-mPEG3-Atazanavir, Leu-Gly-mPEG3-Atazanavir Hydrochloride] >= 500 ng/mL
Found: NO

Lookup: # bool: Cmax of COCCOCCOCCOC(=O)NC(C(=O)NC(Cc1ccccc1)C(CN(Cc1ccc(-c2ccccn2)cc1)NC(=O)C(NC(=O)OC)C(C)(C)C)OC(=O)CCCC(=O)O)C(C)(C)C (stereo not drawn) >= 500 ng/mL
Found: NO

Lookup: # bool: Cmax of CCOCO[C@@H](CN(Cc1ccc(-c2ccccn2)cc1)NC(=O)[C@@H](NC(=O)OC)C(C)(C)C)[C@H](Cc1ccccc1)NC(=O)[C@@H](NC(=O)OCCOCCOCCOC)C(C)(C)C >= 500 ng/mL
Found: YES

Lookup: # bool: Cmax of COCCOCCOCCOCCOCCOC(=O)NC(C(=O)NC(Cc1ccccc1)C(CN(Cc1ccc(-c2ccccn2)cc1)NC(=O)C(NC(=O)OC)C(C)(C)C)OCOC)C(C)(C)C (stereo not drawn) >= 500 ng/mL
Found: YES

Lookup: # bool: Cmax of COCCOCCOCCOCCOCCOCCOC(=O)NC(C(=O)NC(Cc1ccccc1)C(CN(Cc1ccc(-c2ccccn2)cc1)NC(=O)C(NC(=O)OC)C(C)(C)C)OCOC)C(C)(C)C (stereo not drawn) >= 500 ng/mL
Found: NO

Lookup: # bool: Cmax of COCCOCCOCCOCCOCCOC(=O)N[C@H](C(=O)N[C@@H](Cc1ccccc1)[C@H](CN(Cc1ccc(-c2ccccn2)cc1)NC(=O)[C@@H](NC(=O)OC)C(C)(C)C)OC(=O)[C@H](Cc1ccccc1)NC(=O)[C@@H](N)CC(C)C)C(C)(C)C.Cl [Leu-Phe-mPEG5-Atazanavir HCl, Leu-Phe-mPEG5-Atazanavir Hydrochloride] >= 500 ng/mL
Found: NO

Lookup: # bool: Cmax of CCOC(C)OC(CN(Cc1ccc(-c2ccccn2)cc1)NC(=O)C(NC(=O)OC)C(C)(C)C)C(Cc1ccccc1)NC(=O)C(NC(=O)OCCOCCOCCOCCOCCOCCOC)C(C)(C)C (mixture of isomers) >= 500 ng/mL
Found: YES

Lookup: # bool: Cmax of COCCOCCOCCOC(=O)NC(C(=O)NC(Cc1ccccc1)C(CN(Cc1ccc(-c2ccccn2)cc1)NC(=O)C(NC(=O)OC)C(C)(C)C)OC(=O)CCCC(=O)OC1C(O)C(O)OC1C(O)CO)C(C)(C)C (stereo not drawn) >= 500 ng/mL
Found: NO

Lookup: # bool: Cmax of COCCOCCOCCOCCOCCOCCOC(=O)NC(C(=O)NC(Cc1ccccc1)C(CN(Cc1ccc(-c2ccccn2)cc1)NC(=O)C(NC(=O)OC)C(C)(C)C)OC(=O)C(N)CC(C)C)C(C)(C)C.Cl (stereo not drawn) >= 500 ng/mL
Found: NO

Lookup: # bool: Cmax of CCOC(CC)OC(CN(Cc1ccc(-c2ccccn2)cc1)NC(=O)C(NC(=O)OC)C(C)(C)C)C(Cc1ccccc1)NC(=O)C(NC(=O)OCCOCCOCCOC)C(C)(C)C (mixture of isomers) >= 500 ng/mL
Found: YES

Lookup: # bool: Cmax of COCCOCCOCCOCCOCCOCCOC(=O)NC(C(=O)NC(Cc1ccccc1)C(CN(Cc1ccc(-c2ccccn2)cc1)NC(=O)C(NC(=O)OC)C(C)(C)C)OC(=O)COCCOC(=O)C(N)CC(C)C)C(C)(C)C.Cl (stereo not drawn) [mPEG6-Atazanavir-CME-Leucine HCl, mPEG6-Atazanavir-CME-Leucine] >= 500 ng/mL
Found: NO

Lookup: # bool: Cmax of COCCOCCOCCOCCOCCOCCOC(=O)NC(C(=O)NC(Cc1ccccc1)C(CN(Cc1ccc(-c2ccccn2)cc1)NC(=O)C(NC(=O)OC)C(C)(C)C)OC(=O)COCCOC(=O)C(N)Cc1ccccc1)C(C)(C)C.Cl (stereo not drawn) [mPEG6-Atazanavir-CME-phenylalanine HCl] >= 500 ng/mL
Found: NO
